- assay.target: human ether-à-go-go-related gene (hERG) potassium channel (human);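 note: peak tail current of the secondary pulse compared with the same well before compound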
- Sequence (Q12809 whole entry, looked up): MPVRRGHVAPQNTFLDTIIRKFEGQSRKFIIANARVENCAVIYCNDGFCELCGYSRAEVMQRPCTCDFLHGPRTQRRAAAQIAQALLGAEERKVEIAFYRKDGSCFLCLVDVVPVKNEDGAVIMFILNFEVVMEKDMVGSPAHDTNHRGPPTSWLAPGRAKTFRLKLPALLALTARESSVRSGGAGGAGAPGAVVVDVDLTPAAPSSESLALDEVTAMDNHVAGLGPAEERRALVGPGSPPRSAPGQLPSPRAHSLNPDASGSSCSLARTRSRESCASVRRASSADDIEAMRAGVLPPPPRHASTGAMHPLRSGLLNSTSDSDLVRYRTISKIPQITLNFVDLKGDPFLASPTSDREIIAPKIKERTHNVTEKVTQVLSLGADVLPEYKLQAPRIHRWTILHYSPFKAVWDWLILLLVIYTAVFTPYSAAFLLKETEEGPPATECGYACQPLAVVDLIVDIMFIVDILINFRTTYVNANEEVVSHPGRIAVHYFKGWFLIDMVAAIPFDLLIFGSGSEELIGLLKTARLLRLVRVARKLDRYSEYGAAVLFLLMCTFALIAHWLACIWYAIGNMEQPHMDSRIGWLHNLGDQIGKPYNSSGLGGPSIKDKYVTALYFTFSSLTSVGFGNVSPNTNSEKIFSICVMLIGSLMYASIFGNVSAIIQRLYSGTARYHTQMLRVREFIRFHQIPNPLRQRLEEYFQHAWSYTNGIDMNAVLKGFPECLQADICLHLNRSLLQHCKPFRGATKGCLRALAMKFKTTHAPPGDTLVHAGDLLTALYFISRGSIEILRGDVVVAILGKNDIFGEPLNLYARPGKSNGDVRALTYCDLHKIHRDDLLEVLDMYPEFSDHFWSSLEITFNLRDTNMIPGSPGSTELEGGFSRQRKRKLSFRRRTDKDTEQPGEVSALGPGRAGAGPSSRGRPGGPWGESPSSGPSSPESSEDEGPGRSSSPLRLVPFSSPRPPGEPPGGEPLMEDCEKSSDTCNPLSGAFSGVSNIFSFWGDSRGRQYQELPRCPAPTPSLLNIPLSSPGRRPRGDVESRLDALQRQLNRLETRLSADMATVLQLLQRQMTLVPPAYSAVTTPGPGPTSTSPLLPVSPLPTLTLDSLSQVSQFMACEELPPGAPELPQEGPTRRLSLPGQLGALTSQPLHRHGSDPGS
- method.description: primary screen, population patch clamp on CHO cells stably expressing hERG; higher = less effect of the substance
The whole screen tested about 310,000 compounds, of which about 14,000 (4.5%) showed an effect of 50% or more. The effect is printed as a negative number. The full list was thinned out, with strong results kept by preference.
// hERG current change (%, negative = inhibition) at 10uM lookup, one value per entry
readout.name: hERG current change (%, negative = inhibition) at 10uM (%)

compound: CC(/C=C1\SC(=S)N(CCCC(=O)Nc2ccc(C(=O)O)c(O)c2)C1=O)=C\c1ccccc1
units.label: %
assay.result: 7.47
--
compound: CS(=O)(=O)c1ccc(C(=O)NCC(c2ccco2)N2CCCCC2)cc1 (stereo not shown)
units.label: %
assay.result: 18
--
compound: O=C(COC(=O)c1cccc(O)c1)NC(=O)Cc1ccccc1
units.label: %
assay.result: 3.25
--
compound: CC1CC(C)CN(CCCNC(=O)CCC(=O)N2CC(C)Oc3ccccc32)C1 (stereo not shown)
units.label: %
assay.result: -32.2
